Values compiled from patent US10913738B2.

# Test system: MLKL phosphorylation in HT29-L23 human colorectal adenocarcinoma cells
# Test details: MLKL Phosphorylation High-Content Assay
# Type: cell-based
# Condition details: Homo sapiens, x marks IC50 class 20-200 nM, read-out: pMLKL cell activity 20-200 nM
Each entry below carries its recorded IC50.

Compound: Nc1nc2cc(-c3cnc(N)c(C(=O)NCc4ccccc4OC4CCCC4)c3)ccn2n1
Assay system: MLKL phosphorylation in HT29-L23 human colorectal adenocarcinoma cells
Assay result: 20 to 200 nM

Compound: CCOc1ncc(-c2ccn3nc(N)nc3c2)cc1C(=O)NCCc1ccccc1Oc1ccccc1
Assay system: MLKL phosphorylation in HT29-L23 human colorectal adenocarcinoma cells
Assay result: 20 to 200 nM

Compound: COc1nc(C)c(-c2ccn3nc(N)nc3c2)cc1C(=O)NCc1cccc(OC(F)(F)F)c1
Assay system: MLKL phosphorylation in HT29-L23 human colorectal adenocarcinoma cells
Assay result: 20 to 200 nM

Compound: Cc1ncc(-c2ccn3nc(N)nc3c2)cc1C(=O)NCc1ccccc1OC(C)C
Assay system: MLKL phosphorylation in HT29-L23 human colorectal adenocarcinoma cells
Assay result: 20 to 200 nM

Compound: COc1ncc(-c2ccn3nc(N)nc3c2)cc1C(=O)NCc1cc(F)cc(F)c1OC1CCOC(C)C1 (centres unmarked)
Assay system: MLKL phosphorylation in HT29-L23 human colorectal adenocarcinoma cells
Assay result: 20 to 200 nM

## Task Param item = "Cc1cnc(-c2ccn3nc(N)nc3c2)cc1C(=O)NCC[C@@H](O)c1ccc(Cl)cc1" ; retrieve measured IC50.
## Result 20 to 200 nM

## Task Param item = "Nc1nc2cc(-c3cnc(N)c(C(=O)NCc4ccccc4Sc4ccccc4CO)c3)ccn2n1" ; retrieve measured IC50.
## Result 20 to 200 nM

## Task Param item = "CCCOc1ncc(-c2ccn3nc(N)nc3c2)cc1C(=O)NCc1ccccc1Sc1ccccc1CO" ; retrieve measured IC50.
## Result 20 to 200 nM

* * *

# Assay system: His-GST-TVMV-hRIPK1(1-324) (Homo sapiens)
# Construct: The coding region of human RIPK1(1-324) flanked by NdeI site at 5′ end; made in house; host or cells: Spodoptera frugiperda (Sf9) insect cells, baculovirus
# Sequence (Q13546 1-324): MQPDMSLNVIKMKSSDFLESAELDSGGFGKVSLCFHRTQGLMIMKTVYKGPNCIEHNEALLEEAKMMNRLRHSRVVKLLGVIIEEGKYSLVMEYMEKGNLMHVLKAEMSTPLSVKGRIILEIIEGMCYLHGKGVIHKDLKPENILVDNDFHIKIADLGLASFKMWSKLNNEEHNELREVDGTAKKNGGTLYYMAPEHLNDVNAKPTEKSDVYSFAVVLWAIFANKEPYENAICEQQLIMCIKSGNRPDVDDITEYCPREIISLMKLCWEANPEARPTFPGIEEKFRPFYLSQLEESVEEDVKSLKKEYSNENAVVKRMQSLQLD
# Test details: RIPK1 HTRF Binding Assay
# Condition details: x marks IC50 class 20-200 nM; read-out: RIPK1 HTRF binding 20-200 nM
Each entry below carries its recorded IC50.

Use these answered entries as a reference point.
Molecule: Nc1nc2cc(-c3cnc(Cl)c(C(=O)NCc4ccccc4OC(F)(F)F)c3)ccn2n1 [Example 168]
Assay system: His-GST-TVMV-hRIPK1(1-324) (Homo sapiens)
IC50: 20 to 200 nM
--
Molecule: COc1ncc(-c2ccn3nc(N)nc3c2)cc1C(=O)NCc1ccccc1OCC1CCC(C)CC1 (centres unmarked) [Example 10]
Assay system: His-GST-TVMV-hRIPK1(1-324) (Homo sapiens)
IC50: 20 to 200 nM
--
Molecule: [2H]C([2H])([2H])[C@H](NC(=O)c1cc(-c2ccn3nc(N)nc3c2)cnc1OC)c1cc(C(F)(F)F)ccc1F [Example 347]
Assay system: His-GST-TVMV-hRIPK1(1-324) (Homo sapiens)
IC50: 20 to 200 nM

## Task Recorded IC50 for [2H]C([2H])(NC(=O)c1cc(-c2ccn3nc(N)nc3c2)cnc1OC)c1cc(C(F)(F)F)ccc1F [Example 349] with His-GST-TVMV-hRIPK1(1-324) (Homo sapiens), please?
## Result 20 to 200 nM

## Task Recorded IC50 for COc1ncc(-c2ccn3nc(N)nc3c2)nc1C(=O)NCc1cc(OC(F)(F)F)ccc1F [Example 384] with His-GST-TVMV-hRIPK1(1-324) (Homo sapiens), please?
## Result 20 to 200 nM

## Task Recorded IC50 for Cc1ncc(-c2ccn3nc(N)nc3c2)cc1C(=O)NC(C)c1cccc(OC(F)(F)F)c1 (centres unmarked) [Example 234] with His-GST-TVMV-hRIPK1(1-324) (Homo sapiens), please?
## Result 20 to 200 nM

## Task Recorded IC50 for Cc1cnc(-c2ccn3nc(N)nc3c2)nc1C(=O)NCC[C@H](O)c1ccc(Cl)cc1 [Example 410] with His-GST-TVMV-hRIPK1(1-324) (Homo sapiens), please?
## Result 20 to 200 nM

## Task Recorded IC50 for Cc1nc(Cl)c(C(=O)N[C@H](C)c2cc(OC(F)(F)F)ccc2F)cc1-c1ccn2nc(N)nc2c1 [Example 323] with His-GST-TVMV-hRIPK1(1-324) (Homo sapiens), please?
## Result 20 to 200 nM
